B1: library; a variant is named by its letters at X, in order (parent)
chain: MNIQIGELAKRTACPVVTIRFYEQEGLLPPPGRSRGNFRLYGEEHVERLQFIRHCRSLDMPLSDVRTLLSYRKRPDQDCGEVXMLLDEHIRQVESRIGALLELKHHLVELREACSGARPAQSCGILQXLSXCVCXTRGTTAHXSD

# Variants of: B1
# Assay protocol: sfGFP reporter fluorescence (15 h) (µM FITC); higher = stronger transcriptional activation
# Condition parameters: library round: Round 2; ligand: 1 µM Pb
Readout kind: sfGFP reporter fluorescence
Give only the figure.

Recorded results for 2 variants are shown here.
What does the record list as sfGFP reporter fluorescence for NGADP M60L P61N D64K ? 1.38

Can you handle TGDDW L126I next? 0.0458

---
What does the record list as sfGFP reporter fluorescence for NGDAP P61N D64T E112I ? 0.308

Can you handle TGDDP R96A E109A next? 0.0588

Can you handle TGDDY I125L next? 0.0429

Can you handle TIDDP D64K K104V next? 0.472

Can you handle SGDAA next? 0.0745

Can you handle NHEDW next? 0.119
